Some compounds, each annotated with its measured pEC50.
System: HCV genotype 1b (Con1) replicon in HUH-7 cells
Assay: HCV replicon luciferase reporter assay, genotype 1b
Format: cell-based
Settings: Hepatitis C virus, Huh-7, 72 h, HCV genotype 1b replicon luciferase, 3 days incubation, read-out: LE_1b (EC50, range)
pEC50: −log10 of the molar value.

Below: 8 compounds and their reported pEC50.
{"columns": ["compound", "pEC50"],
 "data": [
  ["CC[C@@H]1C[C@H](C)CC/C=C\\[C@@H]2C[C@@]2(C(=O)NS(=O)(=O)C2CC2)NC(=O)[C@@H]2C[C@@H](Oc3nc4cc(OC(C)C)ccc4nc3C(F)(F)F)CN2C(=O)[C@H]1NC(=O)OC(C)(C)C", "9.00 to 9.29"],
  ["CCOc1nnc(O[C@@H]2C[C@H]3C(=O)N[C@]4(C(=O)NS(=O)(=O)C5(C)CC5)C[C@H]4/C=C\\CC[C@@H](C)C[C@@H](CC)[C@H](NC(=O)OC(C)(C)C)C(=O)N3C2)c2ccccc12", "> 8.26"],
  ["C[C@H]1CC/C=C\\[C@@H]2C[C@@]2(C(=O)NS(=O)(=O)C2(C)CC2)NC(=O)[C@@H]2C[C@@H](Oc3nccc4c5c(ccc34)OCCO5)CN2C(=O)[C@@H](NC(=O)OCC2(C)CC2)[C@H](C)C1", "6.99 to 8.32"],
  ["COc1ccc2nc(O[C@@H]3C[C@H]4C(=O)N[C@]5(C(=O)NS(=O)(=O)C6(CF)CC6)C[C@H]5/C=C\\CC[C@@H](C)C[C@@H](C)[C@H](NC(=O)OC(C)(C)C)C(=O)N4C3)c(C)nc2c1", "> 8.26"],
  ["[2H]C([2H])([2H])C(OC(=O)N[C@@H]1C(=O)N2C[C@H](Oc3ncc(OC)c4ccc(F)cc34)C[C@H]2C(=O)N[C@]2(C(=O)NS(=O)(=O)C3(C)CC3)C[C@H]2/C=C\\CC[C@@H](C)C[C@H]1CC)(C([2H])([2H])[2H])C(F)(F)F", "9.00 to 9.29"],
  ["C[C@@H]1CC/C=C\\[C@@H]2C[C@@]2(C(=O)NS(=O)(=O)C2CC2)NC(=O)C2C[C@@H](Oc3nc4ccccc4c4ccccc34)CN2C(=O)[C@@H](NC(=O)OC(C)(C)C(F)(F)F)[C@H](C)C1 (stereo partly drawn)", "> 8.26"],
  ["CCOc1cc2ccccc2c(O[C@@H]2C[C@H]3C(=O)N[C@]4(C(=O)NS(=O)(=O)C5(C)CC5)C[C@H]4/C=C\\CC[C@@H](C)C[C@@H](C)[C@H](NC(=O)OC(C)(C)C(F)(F)F)C(=O)N3C2)n1", "9.30 to 10.00"],
  ["COc1ccc2c(O[C@@H]3C[C@H]4C(=O)N[C@]5(C(=O)NS(=O)(=O)C6CC6)C[C@H]5/C=C\\CC[C@H](C)C[C@@H](C)[C@H](NC(=O)NC(C)(C)C)C(=O)N4C3)nc(-c3ccc(OC(C)C)nc3)cc2c1", "> 8.26"]
]}

Field: next compound
Return pEC50 for the following compound: `COc1cc2ccnc(O[C@@H]3C[C@H]4C(=O)N[C@]5(C(=O)NS(=O)(=O)C6(CF)CC6)C[C@H]5/C=C\CC[C@@H](C)C[C@@H](C)[C@H](NC(=O)C(C)(C)C(F)(F)F)C(=O)N4C3)c2cc1F`
> 8.26
